# testTarget: CD28 (human) (UniProt P10747)
# protocolText: flow cytometry, Jurkat/IL2 reporter cells (CD28)
log10 of MFI at 33.3 nM: recorded values
A value of 2 here means MFI at 33.3 nM of 100 in MFI, since values are log10.

Entry variant CD80 IgV-Fc E35D/M47L/V68M (Fc fusion) VIHVTKEVKEVATLSCGHNVSVEELAQTRIYWQKDKKMVLTMMSGDLNIWPEYKNRTIFDITNNLSIMILALRPSDEGTYECVVLKYEKDAFKREHLAEVTLSVKAD , log10 of MFI at 33.3 nM reported as 3.09

Entry variant CD80 IgV-Fc M47V/N48K/V68M (Fc fusion) VIHVTKEVKEVATLSCGHNVSVEELAQTRIYWQKEKKMVLTMMSGDVKIWPEYKNRTIFDITNNLSIMILALRPSDEGTYECVVLKYEKDAFKREHLAEVTLSVKAD , log10 of MFI at 33.3 nM reported as 2.81

Entry variant CD80 IgV-Fc M47V/N48K/K89N (Fc fusion) VIHVTKEVKEVATLSCGHNVSVEELAQTRIYWQKEKKMVLTMMSGDVKIWPEYKNRTIFDITNNLSIVILALRPSDEGTYECVVLKYENDAFKREHLAEVTLSVKAD , log10 of MFI at 33.3 nM reported as 2.56

Entry variant CD80 IgV-Fc M47L (Fc fusion) VIHVTKEVKEVATLSCGHNVSVEELAQTRIYWQKEKKMVLTMMSGDLNIWPEYKNRTIFDITNNLSIVILALRPSDEGTYECVVLKYEKDAFKREHLAEVTLSVKAD , log10 of MFI at 33.3 nM reported as 2.49

Entry variant CD80 IgV-Fc E35D/M47V (Fc fusion) VIHVTKEVKEVATLSCGHNVSVEELAQTRIYWQKDKKMVLTMMSGDVNIWPEYKNRTIFDITNNLSIVILALRPSDEGTYECVVLKYEKDAFKREHLAEVTLSVKAD , log10 of MFI at 33.3 nM reported as 2.70

Entry variant CD80 IgV-Fc Q27H/E35D/M47I/L85Q/D90G (Fc fusion) VIHVTKEVKEVATLSCGHNVSVEELAHTRIYWQKDKKMVLTMMSGDINIWPEYKNRTIFDITNNLSIVILALRPSDEGTYECVVQKYEKGAFKREHLAEVTLSVKAD , log10 of MFI at 33.3 nM reported as 3.55

Entry variant CD80 IgV-Fc E35D/T41S/M43V/M47I/L70M/A71G (Fc fusion) VIHVTKEVKEVATLSCGHNVSVEELAQTRIYWQKDKKMVLSMVSGDINIWPEYKNRTIFDITNNLSIVIMGLRPSDEGTYECVVLKYEKDAFKREHLAEVTLSVKAD , log10 of MFI at 33.3 nM reported as 3.43

// data source = patent US20220177587A1
